Hey, just so you know, these numbers are from PubChem BioAssay (NCI).

# Test system: A498 renal
# method_description: NCI-60 one-dose screen, 48 h (100 = growth as untreated, 0 = no growth, -100 = all killed)
# measurement_conditions: 10 µM unless noted
About 83,000 compounds went through this panel and 20% of them were active in at least one assay; those are over-represented in the sample as a whole.
observed_property: growth (%)
Hi! Could you send only the number? It should be in %, unit omitted.

Use these answered entries as a reference point.
compound=CCCC[n+]1c(/C=C\c2c(OC)cc(OC)cc2OC)ccc2ccccc21 observed_property=growth units_of_measure=% number=-23.4
compound=Cc1oc2c(C)c3oc(=O)cc(C)c3cc2c1CCl observed_property=growth units_of_measure=% number=61.8
compound="CCOc1ccc(C(CN2CCOCC2)C(C)=O)cc1OC (stereo unspecified)" observed_property=growth units_of_measure=% number=92.2

Let me know recorded growth for `CCN(CC)c1ccc(/C=C\C(=O)c2ccc(NC(C)=O)cc2)cc1` , thanks.
71.6

Let me know recorded growth for `CN=C(N)N/N=C(\c1ccccc1)c1ccc(Br)cc1` , thanks.
-19.2
